Biological target: T1, human alpha2-Antiplasmin (human, UniProt P08697 40-491)
T1 sequence: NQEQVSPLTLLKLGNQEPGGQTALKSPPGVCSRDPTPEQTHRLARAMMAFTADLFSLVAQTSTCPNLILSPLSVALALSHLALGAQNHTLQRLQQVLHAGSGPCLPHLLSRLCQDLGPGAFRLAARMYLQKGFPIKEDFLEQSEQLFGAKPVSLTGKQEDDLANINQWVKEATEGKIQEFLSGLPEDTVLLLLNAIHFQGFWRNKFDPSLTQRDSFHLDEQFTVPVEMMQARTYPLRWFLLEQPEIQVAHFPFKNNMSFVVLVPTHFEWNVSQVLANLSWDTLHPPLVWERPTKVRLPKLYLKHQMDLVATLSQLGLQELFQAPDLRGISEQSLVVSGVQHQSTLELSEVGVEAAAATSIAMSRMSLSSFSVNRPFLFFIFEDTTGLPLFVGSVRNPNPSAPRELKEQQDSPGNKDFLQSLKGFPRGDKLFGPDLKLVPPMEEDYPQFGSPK
Experiment: cell-based or functional assay
quantity: function blocking activity [IC50 M], 3rd exp.
Answer with the value and then the unit.

Below, 2 binders whose answers are already recorded.
binder | observed
TPP-14293 hIgG1 (antibody, V domains shown) VH: EVQLLESGGGLVQPGGSLRLSCAASGFTFDDYAMSWVRQAPGKGLEWVSAIGTGGGTYYADSVKGRFTISRDNSKNTLYLQMNSLRAEDTAVYYCDREYYDSSGYYHLDYWGQGTLVTVSS VL: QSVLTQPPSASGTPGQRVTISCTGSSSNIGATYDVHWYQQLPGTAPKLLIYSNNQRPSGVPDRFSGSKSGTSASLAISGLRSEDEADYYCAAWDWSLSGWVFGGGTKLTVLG | 50 nM
TPP-14303 hIgG1 (antibody, V domains shown) VH: EVQLLESGGGLVQPGGSLRLSCAASGFTFDDYAMSWVRQAPGKGLEWVSAIGTGGGTYYADSVKGRFTISRDNSKNTLYLQMNSLRAEDTAVYYCAREDYDSSGYYHLDYWGQGTLVTVSS VL: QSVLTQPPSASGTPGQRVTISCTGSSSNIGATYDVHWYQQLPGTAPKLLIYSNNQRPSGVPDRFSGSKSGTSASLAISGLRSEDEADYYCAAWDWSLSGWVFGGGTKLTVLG | 94 nM

Now consider the entry below.
Data request: // query function blocking activity [IC50 M], 3rd exp. value for entry TPP-14323 hIgG1 (antibody, V domains shown) VH: EVQLLESGGGLVQPGGSLRLSCAASGFTFDDYAMSWVRQAPGKGLEWVSAIGTGGGTYYADSVKGRFTISRDNSKNTLYLQMNSLRAEDTAVYYCAREYYDSSGYYHLTYWGQGTLVTVSS VL: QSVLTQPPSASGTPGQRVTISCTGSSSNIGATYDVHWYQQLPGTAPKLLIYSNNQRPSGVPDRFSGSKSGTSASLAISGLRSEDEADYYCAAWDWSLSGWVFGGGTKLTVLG
Data returned: 29 nM

The origin of these recorded values is patent US20240010750A1.
